Data credit: the supplement of paper PMC10567573

B1: FAM189A2 (parent)
chain: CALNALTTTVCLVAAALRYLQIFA

- Variants of: B1
- Experiment: protein stability index of a GFP-peptide fusion (GPS, HEK-293T) (PSI 1-6); higher = more stable;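 also: lentivirally expressed fusions sorted by FACS into six bins by GFP to DsRed ratio, PSI derived from sequencing read proportions per bin multiplied by bin number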
- Conditions: c terminus: a fixed tail appended
Entries and their protein stability index values follow.
Please respond with just the number, no unit label.

> print(dat)
    var  result.number
1  R18Q           2.72
2   T8H           2.94
3  V13R           3.73
4   T9P            3.2
5   N4V           3.46

Could you now consider this next variant?
Please indicate protein stability index recorded for A24S
4.25
